# subject-of-test: Dual specificity tyrosine-phosphorylation-regulated kinase 1A (Rattus norvegicus, UniProt Q63470)
# run-description: Inhibition of rat recombinant GST-tagged DYRK1A expressed in Escherichia coli using KKISGRLSPIMTEQ as substrate and [gamma32P]ATP after 30 mins by scintillation counting
measure-name: IC50

> print(dat)
                       compound.structure   result
1                    Nc1ncnc2c1sc1nccnc12  > 10 µM
2          c1ccc(Nc2ncnc3c2sc2nccnc23)cc1  > 10 µM
3    COc1cc(Nc2ncnc3c2sc2cccnc23)cc(OC)c1  > 10 µM
4  COc1cc(Nc2ncnc3c2sc2cccnc23)cc(OC)c1OC  > 10 µM
5      COc1ccc(Nc2ncnc3c2sc2cccnc23)cc1OC   3.7 µM
6      COc1ccc(Nc2ncnc3c2sc2ccccc23)cc1OC   3.7 µM
7  COc1cc(Nc2ncnc3c2sc2ncccc23)cc(OC)c1OC  > 10 µM

###

# key: entry, value: pIC50
# subject-of-test: Dual specificity tyrosine-phosphorylation-regulated kinase 1A (Rattus norvegicus, UniProt Q63470)
# run-description: Inhibition of rat recombinant GST-tagged DYRK1A expressed in Escherichia coli using KKISGRLSPIMTEQ as substrate and [gamma32P]ATP after 30 mins by scintillation counting
pIC50: −log10 of the molar value.
measure-name: pIC50

> print(dat)
                          compound.structure  result
 1         Fc1cc(Br)ccc1Nc1ncnc2c1sc1cccnc12    5.14
 2  O=[N+]([O-])c1cc(Nc2ncnc3c2sc2ncccc23)ccc1O  < 5.00
 3            c1ccc(Nc2ncnc3c2sc2ccccc23)cc1  < 5.00
 4    c1cnc2sc3c(Nc4ccc5c(c4)OCCO5)ncnc3c2c1  < 5.00
 5          COc1ccc(Nc2ncnc3c2sc2ncccc23)cc1  < 5.00
 6         Fc1cc(Br)ccc1Nc1ncnc2c1sc1ncccc12    6.05
 7      COc1cc(Nc2ncnc3c2sc2ccccc23)cc(OC)c1  < 5.00
 8         Fc1cc(Br)ccc1Nc1ncnc2c1sc1ccccc12  < 5.00
 9  c1ccc2c(c1)sc1c(Nc3ccc4c(c3)OCCO4)ncnc12  < 5.00
10     c1cnc2sc3c(Nc4ccc5c(c4)OCO5)ncnc3c2c1  < 5.00
11      COc1cc(Nc2ncnc3c2sc2ncccc23)cc(OC)c1  < 5.00
12         Fc1cc(Br)ccc1Nc1ncnc2c1sc1nccnc12  < 5.00
13                      Nc1ncnc2c1sc1cccnc12    5.22
14  O=[N+]([O-])c1cc(Nc2ncnc3c2sc2ccccc23)ccc1O  < 5.00
15  c1cnc2c(c1)sc1c(Nc3ccc4c(c3)OCCO4)ncnc12  < 5.00
16    COc1cc(Nc2ncnc3c2sc2ccccc23)cc(OC)c1OC  < 5.00
17        COc1ccc(Nc2ncnc3c2sc2nccnc23)cc1OC  < 5.00
18   c1cnc2c(n1)sc1c(Nc3ccc4c(c3)OCO4)ncnc12  < 5.00
19                      Nc1ncnc2c1sc1ncccc12    5.55
20          COc1ccc(Nc2ncnc3c2sc2cccnc23)cc1  < 5.00
21  O=[N+]([O-])c1cc(Nc2ncnc3c2sc2cccnc23)ccc1O    5.24
22          COc1ccc(Nc2ncnc3c2sc2nccnc23)cc1  < 5.00
23   c1cnc2c(c1)sc1c(Nc3ccc4c(c3)OCO4)ncnc12  < 5.00
24                      Nc1ncnc2c1sc1ccccc12    5.29
25        COc1ccc(Nc2ncnc3c2sc2ncccc23)cc1OC    5.54
26  c1cnc2c(n1)sc1c(Nc3ccc4c(c3)OCCO4)ncnc12  < 5.00
27            c1ccc(Nc2ncnc3c2sc2cccnc23)cc1  < 5.00
28   c1ccc2c(c1)sc1c(Nc3ccc4c(c3)OCO4)ncnc12  < 5.00
29  O=[N+]([O-])c1cc(Nc2ncnc3c2sc2nccnc23)ccc1O  < 5.00
30          COc1ccc(Nc2ncnc3c2sc2ccccc23)cc1  < 5.00
31            c1ccc(Nc2ncnc3c2sc2ncccc23)cc1  < 5.00
32    COc1cc(Nc2ncnc3c2sc2nccnc23)cc(OC)c1OC  < 5.00
33      COc1cc(Nc2ncnc3c2sc2nccnc23)cc(OC)c1  < 5.00
